B1: EHEE_rd2_0601 (parent)
chain: TYTYKLTDEEASRRAEDEWRNRGYDVRVRNNNGTWEVEVR

- Variants of: B1
- Assay Name: folding stability dG (cDNA display proteolysis); higher = more stable
- Condition Set: PBS, room temperature
Recorded Endpoint: folding stability dG (kcal/mol)
Report the figure in kcal/mol without appending any unit label.

stdin: Reported folding stability dG, variant "TYTYKLTDEEASARAEDEWRNRGYDVRVRNNNGTWEVEVR" : ____
stdout: 0.771

stdin: Same for "TYTYKLTDEEASRRAEDEWRNRGYDVRVRNNNGTWEVEVS"
stdout: 1.71

stdin: Same for "TETYKLTDEEASRRAEDEWRNRGYDVRVRNNNGTWEVEVR"
stdout: 0.682

stdin: Same for "TYTYKLTDEEASRRAEDEWMNRGYDVRVRNNNGTWEVEVR"
stdout: 0.619

stdin: Same for "TYTYKLTDEEASRRAEDEWRNRGYDVRVRNNNATWEVEVR"
stdout: -0.168

stdin: Same for "TYTYKLTDEEASRRAEDEWRTRGYDVRVRNNNGTWEVEVR"
stdout: 1.31

stdin: Same for "TYTYKLTDEEASRRAEGEWRNRGYDVRVRNNNGTWEVEVR"
stdout: 1.24

stdin: Same for "TYTYKLTDEEASRRAEDEWRNRGYDVRVRNNNGTWNVEVR"
stdout: 0.173

stdin: Same for "VYTYKLTDEEASRRAEDEWRNRGYDVRVRNNNGTWEVEVR"
stdout: 1.86

stdin: Same for "TYCYKLTDEEASRRAEDEWRNRGYDVRVRNNNGTWEVEVR"
stdout: 2.36

stdin: Same for "TYTYKLTDEEASRRAEDEWRNEGYDVRVRNNNGTWEVEVR"
stdout: 0.251

stdin: Same for "TYTYKLTDEEASRRAEDFWRNRGYDVRVRNNNGTWEVEVR"
stdout: 2.71

stdin: Same for "TYTYKLTDEEASRRAEDEWRNRGYDVRVKNNNGTWEVEVR"
stdout: 1.35

stdin: Same for "TYTYKLTDEEASRRAEDEWRNRGYDVRVRNNNGTWEVWVR"
stdout: 0.84

stdin: Same for "TYWYKLTDEEASRRAEDEWRNRGYDVRVRNNNGTWEVEVR"
stdout: 1.24

stdin: Same for "TYTYKLTDEEASRRAEDIWRNRGYDVRVRNNNGTWEVEVR"
stdout: 1.74

stdin: Same for "TYTYKLTDEEASRSAEDEWRNRGYDVRVRNNNGTWEVEVR"
stdout: 0.898

stdin: Same for "TYTYKLTDEEASRRAEDEWRNRGYDVRVHNNNGTWEVEVR"
stdout: 1.49

stdin: Same for "TYTYKLTDEEASRRAEDEWRNRGYDVRVNNNNGTWEVEVR"
stdout: 1.17

stdin: Same for "TYTYKLTDEEASRRAEDEWRNRGYDVHVRNNNGTWEVEVR"
stdout: 1.56

stdin: Same for "TYTYKLTDEEASRRAEDEWRNRGYDVRVRNNNGTWEVEVQ"
stdout: 1.09

stdin: Same for "TYTYKLTDEEASRRAEDEWRNRGYDVRTRNNNGTWEVEVR"
stdout: 0.683

stdin: Same for "TYTYKLTDEEASRRAEDEWRNRGIDVRVRNNNGTWEVEVR"
stdout: -0.012

stdin: Same for "TYTLKLTDEEASRRAEDEWRNRGYDVRVRNNNGTWEVEVR"
stdout: 1.36

stdin: Same for "TYTYKLTDEEASRRAEDEWRNRGYDVRVPNNNGTWEVEVR"
stdout: -0.71

stdin: Same for "TYTYKLTDEEASRRAEDEWRNRGYDVRVRNNNGTLEVEVR"
stdout: -0.206

stdin: Same for "TYTYKLTDEEASRRAEDEWRNRGYDVRVRNMNGTWEVEVR"
stdout: 1.31

stdin: Same for "TYTYKLTDEEASRRAEDEWRNRGFDVRVRNNNGTWEVEVR"
stdout: 1.51

stdin: Same for "TYTHKLTDEEASRRAEDEWRNRGYDVRVRNNNGTWEVEVR"
stdout: 0.191

stdin: Same for "TYTYKLTDEEASRRAQDEWRNRGYDVRVRNNNGTWEVEVR"
stdout: 1.46

stdin: Same for "TYTYKLTDEEASRRAEDEWRNRGYDVRVRNNNGTFEVEVR"
stdout: 0.888

stdin: Same for "TYTYMLTDEEASRRAEDEWRNRGYDVRVRNNNGTWEVEVR"
stdout: 1.72

stdin: Same for "TYTYKLTDEEASRRAEDWWRNRGYDVRVRNNNGTWEVEVR"
stdout: 2.44

stdin: Same for "TYTYKLTMEEASRRAEDEWRNRGYDVRVRNNNGTWEVEVR"
stdout: 0.146

stdin: Same for "TYTYKLTDEEASRRAEDEWRNRGYDVRVRNNNGTWEVEVV"
stdout: 1.32

stdin: Same for "WYTYKLTDEEASRRAEDEWRNRGYDVRVRNNNGTWEVEVR"
stdout: 2.65

stdin: Same for "TYTYKLTDEEASRRAEDEWRNRGYFVRVRNNNGTWEVEVR"
stdout: 1.35

stdin: Same for "TYTYKLTDEEASRRAEDEWRNRGYDVRVRNNNGTWEVAVR"
stdout: 0.691

stdin: Same for "GYTYKLTDEEASRRAEDEWRNRGYDVRVRNNNGTWEVEVR"
stdout: 1.37

stdin: Same for "TYTYKLTDEEASRRAEDEWRNRGYDVRVRNNNGKWEVEVR"
stdout: 0.867

stdin: Same for "TYTPKLTDEEASRRAEDEWRNRGYDVRVRNNNGTWEVEVR"
stdout: -0.228

stdin: Same for "TYTYKLTDEEADRRAEDEWRNRGYDVRVRNNNGTWEVEVR"
stdout: -0.63

stdin: Same for "TYTYKLTDEEASRRAEDEWANRGYDVRVRNNNGTWEVEVR"
stdout: 0.541

stdin: Same for "TYTYKLQDEEASRRAEDEWRNRGYDVRVRNNNGTWEVEVR"
stdout: 1.86

stdin: Same for "TYTYKLTDEEASRRAEDEWRNRGYDVRVRNNNGTCEVEVR"
stdout: -0.208

stdin: Same for "TYTYKLTDEEASRRAWDEWRNRGYDVRVRNNNGTWEVEVR"
stdout: 1.3

stdin: Same for "TYTYKLTDEEASRRAEDEWRARGYDVRVRNNNGTWEVEVR"
stdout: 1.82

stdin: Same for "SYTYKLTDEEASRRAEDEWRNRGYDVRVRNNNGTWEVEVR"
stdout: 1.62

stdin: Same for "TYTYKLTDEEASRRAEDEWRNRGYSVRVRNNNGTWEVEVR"
stdout: 1.3

stdin: Same for "TYTYKLTDEEASRRAEDEWRNRGYDVMVRNNNGTWEVEVR"
stdout: 1.49

stdin: Same for "TYTYKLTDEEASRRAEDHWRNRGYDVRVRNNNGTWEVEVR"
stdout: 1.83

stdin: Same for "TYTYKLTDEVASRRAEDEWRNRGYDVRVRNNNGTWEVEVR"
stdout: 1.27

stdin: Same for "TYTYKLTDEEASRRAEDEWRNRGYDVRVWNNNGTWEVEVR"
stdout: 1.56

stdin: Same for "TYTYKLTDEEASRRAEDEWRNRGYDVEVRNNNGTWEVEVR"
stdout: 1.6

stdin: Same for "TYTYKLTCEEASRRAEDEWRNRGYDVRVRNNNGTWEVEVR"
stdout: 1.07

stdin: Same for "TYTYKLTDEEASRRASDEWRNRGYDVRVRNNNGTWEVEVR"
stdout: 1.47

stdin: Same for "TYTYKLTIEEASRRAEDEWRNRGYDVRVRNNNGTWEVEVR"
stdout: 0.306

stdin: Same for "TYTYKLTDEEASRRAEDEWRNRGYDVQVRNNNGTWEVEVR"
stdout: 1.56

stdin: Same for "TYTYKLTDEHASRRAEDEWRNRGYDVRVRNNNGTWEVEVR"
stdout: 1.09

stdin: Same for "TYTYKLTDEEASRRAEDEWRNRGVDVRVRNNNGTWEVEVR"
stdout: 0.003

stdin: Same for "PYTYKLTDEEASRRAEDEWRNRGYDVRVRNNNGTWEVEVR"
stdout: 1.15

stdin: Same for "TYTYKLTDEEASRFAEDEWRNRGYDVRVRNNNGTWEVEVR"
stdout: 1.13

stdin: Same for "TYTYKLTDEKASRRAEDEWRNRGYDVRVRNNNGTWEVEVR"
stdout: 1.19

stdin: Same for "TYTYKLTDEEASRRAEDEWRNRGYDVRVRNNNGYWEVEVR"
stdout: 1.66

stdin: Same for "TYTYRLTDEEASRRAEDEWRNRGYDVRVRNNNGTWEVEVR"
stdout: 1.56

stdin: Same for "TYTYKLTDEEASRRAYDEWRNRGYDVRVRNNNGTWEVEVR"
stdout: 1.86

stdin: Same for "TYTYKLTDEEASRRAEDEWRNRGYDVRVRNNNGTWSVEVR"
stdout: 0.611

stdin: Same for "TYTYKLTDEEASRRAEDEWRNRGYDVRVMNNNGTWEVEVR"
stdout: 1.26

stdin: Same for "TYTYKLTDEEASRRAEDEWRNRGYDVRVRNNNGTWEVEMR"
stdout: -0.536

stdin: Same for "TYTYKLTDEEASRRAEDEWRNRGYDVRVRNNNKTWEVEVR"
stdout: -0.238

stdin: Same for "TYTYKLTDEEASGRAEDEWRNRGYDVRVRNNNGTWEVEVR"
stdout: 0.328

stdin: Same for "TYTYKLTDEEASRRAEDEWRNRGYDVGVRNNNGTWEVEVR"
stdout: 0.575

stdin: Same for "TYTYKLTDEEASVRAEDEWRNRGYDVRVRNNNGTWEVEVR"
stdout: 0.764

stdin: Same for "TYTYKLTDAEASRRAEDEWRNRGYDVRVRNNNGTWEVEVR"
stdout: 1.12

stdin: Same for "TYTYKLTDEEASRRAEDEWRNRGYWVRVRNNNGTWEVEVR"
stdout: 1.53

stdin: Same for "TYTYKLTDEEASRRAEDEWRNRGYDVRVRPNNGTWEVEVR"
stdout: 0.863

// data source = the MegaScale stability set (Tsuboyama et al. 2023)
